Molecular target: rat TRPV1 (Rattus norvegicus)
Sequence (O35433 whole entry): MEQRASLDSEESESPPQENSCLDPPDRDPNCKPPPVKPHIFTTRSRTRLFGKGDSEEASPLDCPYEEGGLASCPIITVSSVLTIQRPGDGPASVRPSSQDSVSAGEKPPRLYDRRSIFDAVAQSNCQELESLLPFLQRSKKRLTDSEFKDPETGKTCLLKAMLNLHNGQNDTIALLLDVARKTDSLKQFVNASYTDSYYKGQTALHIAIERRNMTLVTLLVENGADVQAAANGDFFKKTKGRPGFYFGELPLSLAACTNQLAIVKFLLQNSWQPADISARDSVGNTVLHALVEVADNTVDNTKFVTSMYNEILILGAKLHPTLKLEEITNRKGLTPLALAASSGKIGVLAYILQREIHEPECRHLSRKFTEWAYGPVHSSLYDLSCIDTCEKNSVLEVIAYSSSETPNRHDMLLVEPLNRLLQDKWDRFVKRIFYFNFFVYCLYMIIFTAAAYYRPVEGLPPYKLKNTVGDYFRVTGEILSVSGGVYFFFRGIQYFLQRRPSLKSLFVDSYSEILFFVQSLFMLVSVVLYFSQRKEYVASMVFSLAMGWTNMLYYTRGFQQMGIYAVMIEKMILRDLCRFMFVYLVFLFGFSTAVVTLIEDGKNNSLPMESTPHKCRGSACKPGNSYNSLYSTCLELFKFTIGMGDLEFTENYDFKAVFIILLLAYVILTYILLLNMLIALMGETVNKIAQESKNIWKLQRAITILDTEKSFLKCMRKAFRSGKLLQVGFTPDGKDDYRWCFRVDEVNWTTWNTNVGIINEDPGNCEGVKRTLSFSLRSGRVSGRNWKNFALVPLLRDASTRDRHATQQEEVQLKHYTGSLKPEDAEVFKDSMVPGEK
Assay: Functional assay: block of capsaicin-induced Ca2+ influx, rat assay (rTRPV1/HEK293, FLIPR)
Settings: rTRPV1/HEK293 cells, capsaicin challenge, Fluo-3 fluorescence; mean; > value = solubility limit in assay medium
measured endpoint: IC50 (nM)

// below: answered compounds
{"compound": "Cc1nc(Nc2ccc(C(F)(F)F)cc2)c2nc(Nc3c(C)cccc3C)sc2n1 [Example 245]", "IC50 / nM": 5}
{"compound": "Cc1cccc(C)c1Nc1nc2c(Nc3ccc(F)cc3)ncnc2s1 [Example 144]", "IC50 / nM": 221}
{"compound": "CS(=O)(=O)c1ccc(Nc2nc(NCC3CC3)nc3sc(Nc4c(Cl)cccc4Cl)nc23)cc1 [Example 184]", "IC50 / nM": 5}

(I) Cc1noc(C)c1Nc1nc2c(Nc3ccc(S(=O)(=O)N4CCOCC4)cc3)ncnc2s1 [Example 221]
(II) CS(=O)(=O)c1ccc(Nc2nc(N3CCCCC3)nc3sc(Nc4c(Cl)cccc4Cl)nc23)cc1 [Example 129]
(III) Cc1cccc(C)c1Nc1nc2c(Nc3ccc(I)cc3)ncnc2s1 [Example 137]
(IV) CC1CCCCN1c1nc(Nc2ccc(S(C)(=O)=O)cc2)c2nc(Nc3c(Cl)cccc3Cl)sc2n1 (racemic) [Example 179]
*Q* Exam item: list the entries in increasing order of IC50. Form entry: ranked labels (order as requested).
*A* IV, II, III, I
(IV: 12 nM, II: 23 nM, III: 48 nM, I: 271 nM)
